Target System: KCNQ2/3 channels (Homo sapiens, UniProt O43525+O43526)
Construct: expressed in transfected cells; host or cells: CHO-K1 cells
Assay Summary: Fluorescence assay using a voltage-sensitive dye (fluorimetry)
Type: cell-based
Condition Summary: at 1 μM; 50 μM retigabine = 100%; CHO-K1 cells expressing KCNQ2/3; read-out: Fluorimetry % efficacy at 1 μM (50 μM retigabine = 100%)
Measured Quantity: Emax at 1 µM (%)

Cc1ccc(S(=O)(=O)CCSc2nc3ccccc3cc2C(=O)NCc2cccs2)cc1 :: 77
CSc1nc2cc(C(F)(F)F)ccc2c(C)c1C(=O)NCc1ccc(F)cc1 :: 150
CCSc1nc2c(OC)cccc2c(C)c1C(=O)NCc1ccc(F)cc1 :: 91
Cc1c(C(=O)NCc2cccc(F)c2)c(SC2CCCCC2)nc2cc(C(F)(F)F)ccc12 :: 102
CCSc1nc2cc(C(F)(F)F)ccc2c(C)c1C(=O)NCc1cccs1 :: 141
CCSc1nc2cc(C(F)(F)F)ccc2c(C)c1C(=O)NCc1cccnc1 :: 175

I = CCSc1nc2cc(C(F)(F)F)ccc2c(C)c1C(=O)NCc1ccccc1F
II = CCSc1nc2cc(F)c(F)cc2c(C)c1C(=O)NCc1cccc(F)c1
Determine, for I and II , which has the greater value of Emax at 1 µM. Your answer should be the label of the entry you select.
II

A = CCSc1nc2cc(C(F)(F)F)ccc2c(C)c1C(=O)NCc1cc(C)cs1
B = CCSc1nc2cc(C(F)(F)F)ccc2c(C)c1C(=O)NCc1ccccc1C
C = CCSc1nc2cc(C(F)(F)F)ccc2c(C)c1C(=O)NCc1ccc(F)cc1F
D = CCSc1nc2cc(N3CCOCC3)ccc2c(C)c1C(=O)NCc1ccc(F)cc1
E = CC(C)(C)CCNC(=O)c1cc2ccccc2nc1SCCS(=O)(=O)c1ccccc1
List the 5 entries from lowest Emax at 1 µM to highest Emax at 1 µM value. Returns: the labels arranged in the requested order.
D, E, B, C, A

A = CCSc1nc2ccc(C(F)(F)F)cc2cc1C(=O)NCc1cccs1
B = CCSc1nc2cc(C(F)(F)F)ccc2c(C)c1C(=O)NCc1cc(F)c(F)cc1F
// pick larger Emax at 1 µM from pair: A vs B Let me know the label of the one you choose.
A
(A: 155%, B: 72%)
